Test system: rabbit vWF A1 domain (SEQ ID NO 6)
Sequence (as listed by the source): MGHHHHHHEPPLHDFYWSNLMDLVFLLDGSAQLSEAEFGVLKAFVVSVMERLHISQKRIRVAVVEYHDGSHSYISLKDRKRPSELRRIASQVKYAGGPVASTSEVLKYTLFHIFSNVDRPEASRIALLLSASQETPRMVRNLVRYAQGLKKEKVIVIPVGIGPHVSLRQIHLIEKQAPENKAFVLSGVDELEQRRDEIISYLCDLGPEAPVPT
measurement.description: dot blot KD determination, rabbit vWF A1 domain
Format: binding
test.conditions: rRdY minimers; 8 point titration 0-300 nM
Oligonucleotides are written 5' to 3', each unit as a sugar letter and its base; * is a phosphorothioate linkage, no mark a phosphodiester; rarer units and linkages stand in square brackets, end groups in braces. Plain capitals give the bases only. d = 2'-deoxy (DNA); r = 2'-OH (RNA)
readout.name: Kd (nM)
Numbers only, in nM.

Record excerpt, results attached:
GGAGCCACGGGGTGGGTAGACGGCGGGTATGTGGCTCC (rGrGrArGdCdCrAdCrGrGrGrGdTrGrGrGdTrArGrAdCrGrGdCrGrGrGdTrAdTrGdTrGrGdCdTdCdC) [SEQ ID NO 180, minimized rRdY aptamer]	14
GGAGCCACACGACATTGGCGGGCGAGAGCCACGCATGGCTCC (rGrGrArGdCdCrAdCrAdCrGrAdCrAdTdTrGrGdCrGrGrGdCrGrArGrArGdCdCrAdCrGdCrAdTrGrGdCdTdCdC) [SEQ ID NO 192, minimized rRdY aptamer]	8
GGCCACACGACATTGGCGGGCGAGAGCCACGCATGGCC (rGrGdCdCrAdCrAdCrGrAdCrAdTdTrGrGdCrGrGrGdCrGrArGrArGdCdCrAdCrGdCrAdTrGrGdCdC) [SEQ ID NO 198, minimized rRdY aptamer]	11

Next item in the queue.
stdin: Lab request: please report Kd under test system rabbit vWF A1 domain (SEQ ID NO 6) for GGGACGGGGTGGGTAGACGGCGGGTATGTCCC (rGrGrGrAdCrGrGrGrGdTrGrGrGdTrArGrAdCrGrGdCrGrGrGdTrAdTrGdTdCdCdC) [SEQ ID NO 183, minimized rRdY aptamer]
stdout: 14
